Each entry below carries its recorded kon.
Biological target: T1, human TROP2-his protein (human, UniProt P09758 27-274)
T1 construct: Biotin-labelled in the ELISAs, unlabelled analyte in Biacore; also called biotin-labeled human TROP2-his protein; biotin human Trop2-his
T1 sequence: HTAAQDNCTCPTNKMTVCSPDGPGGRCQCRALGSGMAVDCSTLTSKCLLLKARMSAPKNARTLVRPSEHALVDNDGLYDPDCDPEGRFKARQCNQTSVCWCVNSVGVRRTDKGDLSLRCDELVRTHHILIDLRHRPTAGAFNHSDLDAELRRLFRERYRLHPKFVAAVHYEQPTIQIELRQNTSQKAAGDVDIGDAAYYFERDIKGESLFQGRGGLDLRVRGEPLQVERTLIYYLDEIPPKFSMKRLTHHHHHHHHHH
Test: SPR Biacore T200, supernatant antibody captured on anti-human IgG CM5 chip, 40 nM human TROP2-his
endpoint: kon (M⁻¹ s⁻¹)

- huA1E4F7D4-V20 (antibody, human IgG1, kappa, V domains shown, Positions of the X residues are given in the claims; Tested as cell supernatant) VH: QVQLVQSGAEVKKPGASVKVSCKASGYSFTTHWIHWVRQAPGQGLEWIGTIFPSNAYAVYNQKFRDRATMTRDRSISTAYIELSRLRSDDTAVYYCARASYFDYWGQGTTVTVSS VL: EIVLTQSPATLSLSPGERATLSCRASQNIGTSIHWFQQKPGGSPRLLIYYASESISGIPSRFSGSGSGTDFTLTISSLEPEDFAVYYCQHSHSWPFTFGQGTKLEIKR: 868000
- huA1E4F7D4-V21 (antibody, human IgG1, kappa, V domains shown, Positions of the X residues are given in the claims; Tested as cell supernatant) VH: QVQLVQSGAEVKKPGASVKVSCKASGYSFTTHWIHWVRQAPGQGLEWIGTIFPSNAYAVYNQKFRDRATMTADTSISTAYIELSRLRSDDTAVYYCARASYFDYWGQGTTVTVSS VL: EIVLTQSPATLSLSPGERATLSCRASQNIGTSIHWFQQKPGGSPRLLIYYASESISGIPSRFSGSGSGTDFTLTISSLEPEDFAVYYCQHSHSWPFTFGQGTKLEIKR: 1.44e+06
- huA1E4F7D4-V7 (antibody, human IgG1, kappa, V domains shown, Positions of the X residues are given in the claims; Tested as cell supernatant) VH: QVQLVQSGAEVKKPGASVKVSCKASGYSFTTHWIHWVRQAPGQGLEWIGTIFPSNAYAVYNQKFRDRATMTADRSISTAYIELSRLRSDDTAVYYCARASYFDYWGQGTTVTVSS VL: EIVLTQSPATLSLSPGERATLSCRASQNIGTSIHWFQQKPGQSPRLLIKYASESISGIPSRFSGSGSGTDFTLTISSLEPEDFAVYYCQHSHSWPFTFGQGTKLEIKR: 887000
